TGT: T1, UNK ZnF1-3 (human, UniProt Q9C0B0 31-174)
T1 sequence: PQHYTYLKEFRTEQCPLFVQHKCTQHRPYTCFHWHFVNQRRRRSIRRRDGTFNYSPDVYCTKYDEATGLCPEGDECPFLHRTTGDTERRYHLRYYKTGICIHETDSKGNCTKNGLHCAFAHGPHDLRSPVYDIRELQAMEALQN
TEST METHOD NOTES: nsRBNS (natural sequence RNA bind-n-seq); RBNS binding buffer (assumed for nsRBNS): 25 mM Tris pH 7.5, 150 mM KCl, 3 mM MgCl2, 0.01% Triton X-100, 500 ug/ml BSA, 20 U/ml SUPERase-In, 4 C; UNK is unkempt and MSI1 is Musashi-1; names of the RNAs are library labels; protein concentration not given here; high values mean tight binding
Over roughly 24,000 sequences, “enrichment r” has its median near 0.99; the highest 2% begin near 3.7. A selection follows.

BINDER	binding signal [enrichment R]
chr8:101271117:101271118:-_ENSG00000034677_ENST00000519449|hu_mus|motif|central (ssRNA) RNA: GGGAGUUCUACAGUCCGACGAUCGCAAUCACUGGAGCCGUGACUACAGGACGUUCUCAUGCUUUCUAAGUCUGAGCAGCGGAAUUCAGAAAAAUGACUGGAGUGGGAAUCUGCUACAGACGGCAUGCUGUCACUGAGGGAUGGCAACAGAGGAUUGAGCAUCA	1.45
chr18:52893488:52893489:-_ENSG00000196628_ENST00000354452|hu_hu|hu_hu_hu_mus_True|8_18 (ssRNA) RNA: GGGAGUUCUACAGUCCGACGAUCUAUUUAGACCAUUUCCGCGGAGUUAUGGCAUUUACUCAGUGCUGAUAGGUGGAAAAACUACUUCAACAGGGAUUUUUUUUUUCCUUAAUACAUGCCAAGAAUUGUGUGGCUGUAAAACAGCAACAGAGGAUUGAGCAUCA	1.05
chr14:66974463:66974464:+_ENSMUSG00000022044_ENSMUST00000074523|mus_hu|mus_mus_mus_hu_False|18_58 (ssRNA) RNA: GGGAGUUCUACAGUCCGACGAUCUUGUAGGACGACUUAUUCAGGGGAUCGGCCAGGAAGCAGGAGCAGAACAAGGACACUAGUGGGAGCUCCUUCAUCUUCUCUUUGUAGGCAGCAAGAGUCAUGUUUCUGGGAUCUGGUGGCCAACAGAGGAUUGAGCAUCA	2.28

Measured values drawn from paper PMC12136788 for this set.
